Reported CC50 at 72 h values follow for various compounds
# procedure_summary: Cytotoxicity against human HepG2 cells measured after 72 hrs by MTT assay
# Format: cell-based
measurement_kind: CC50 at 72 h (µM)

1) CC(=O)c1cccc(Oc2nc(C(Cl)(Cl)Cl)nc3ccccc23)c1
1
2) O=[N+]([O-])c1cccc(COc2nc(C(Cl)(Cl)Cl)nc3ccccc23)c1
29.9
3) COc1ccc(COc2nc(C(Cl)(Cl)Cl)nc3ccccc23)cc1
90.3
4) ClC(Cl)(Cl)c1nc(OCc2ccccc2)c2ccccc2n1
43.8
5) FC(F)(F)c1ccc(COc2nc(C(Cl)(Cl)Cl)nc3ccccc23)cc1
27.8
6) O=[N+]([O-])c1cc2c(cc1COc1nc(C(Cl)(Cl)Cl)nc3ccccc13)OCO2
28.7
7) CC(Oc1nc(C(Cl)(Cl)Cl)nc2ccccc12)c1ccc(Cl)cc1 (stereo not given)
25.1
8) O=[N+]([O-])c1ccc(/C=C/COc2nc(C(Cl)(Cl)Cl)nc3ccccc23)cc1
31.2
9) Clc1ccc(COc2nc(C(Cl)(Cl)Cl)nc3ccccc23)cc1
33.4
10) ClC(Cl)(Cl)c1nc(OCc2cccc(OCc3ccccc3)c2)c2ccccc2n1
62.5

====

# procedure_summary: Cytotoxicity against human HepG2 cells measured after 72 hrs by MTT assay
# Format: cell-based
Reported CC50 at 72 h values follow for various compounds
measurement_kind: CC50 at 72 h (µM)

1. Cc1ccc(COc2nc(C(Cl)(Cl)Cl)nc3ccccc23)cc1
50.9
2. CC(=O)c1ccc(Oc2nc(C(Cl)(Cl)Cl)nc3ccccc23)cc1
49.5
3. Cc1cc(Oc2nc(C(Cl)(Cl)Cl)nc3ccccc23)ccc1Cl
5.3

====

# procedure_summary: Solubility of compound in RPMI1640 culture medium containing 25mM HEPES, 25 mM NaHCO3 and 10% A+ human serum
# Type: physicochemical
measurement_kind: solubility

1. CC(=O)c1cccc(Oc2nc(C(Cl)(Cl)Cl)nc3ccccc23)c1
soluble
2. CC(Oc1nc(C(Cl)(Cl)Cl)nc2ccccc12)c1ccc(Cl)cc1 (stereo not given)
soluble
3. FC(F)(F)c1ccc(COc2nc(C(Cl)(Cl)Cl)nc3ccccc23)cc1
soluble
4. Cc1ccc(COc2nc(C(Cl)(Cl)Cl)nc3ccccc23)cc1
soluble
5. ClC(Cl)(Cl)c1nc(OCc2cccc(OCc3ccccc3)c2)c2ccccc2n1
soluble
6. O=[N+]([O-])c1cc2c(cc1COc1nc(C(Cl)(Cl)Cl)nc3ccccc13)OCO2
soluble
7. N#Cc1ccc(Oc2nc(C(Cl)(Cl)Cl)nc3ccccc23)cc1
Insoluble
8. O=[N+]([O-])c1cccc(COc2nc(C(Cl)(Cl)Cl)nc3ccccc23)c1
soluble
9. ClC(Cl)(Cl)c1nc(Oc2ccc(Br)cc2)c2ccccc2n1
soluble
10. O=[N+]([O-])c1ccccc1COc1nc(C(Cl)(Cl)Cl)nc2ccccc12
Insoluble

====

# procedure_summary: Cytotoxicity against human HepG2 cells measured after 72 hrs by MTT assay
# Format: cell-based
Reported CC50 at 72 h values follow for various compounds
measurement_kind: CC50 at 72 h (µM)

1) ClC(Cl)(Cl)c1nc(Oc2ccc3ccccc3n2)c2ccccc2n1
30.3
2) CC(Oc1nc(C(Cl)(Cl)Cl)nc2ccccc12)c1ccc(Cl)cc1Cl (stereo not given)
30.2
3) ClC(Cl)(Cl)c1nc(Oc2ccc(Br)cc2)c2ccccc2n1
45
4) ClC(Cl)(Cl)c1nc(Oc2c(Br)cc(Br)c3cccnc23)c2ccccc2n1
4.9
5) CC(Oc1nc(C(Cl)(Cl)Cl)nc2ccccc12)c1ccccc1 (stereo not given)
39.9
6) COc1cccc(Oc2nc(C(Cl)(Cl)Cl)nc3ccccc23)c1
0.5
7) Cc1occc(=O)c1Oc1nc(C(Cl)(Cl)Cl)nc2ccccc12
62.7
8) O=c1cc(Oc2nc(C(Cl)(Cl)Cl)nc3ccccc23)c2ccccc2o1
59
9) Clc1ccc(Oc2nc(C(Cl)(Cl)Cl)nc3ccccc23)c(Cl)c1
22.1
10) COc1ccc(COc2nc(C(Cl)(Cl)Cl)nc3ccccc23)cc1OC
118
11) ClC(Cl)(Cl)c1nc(Oc2ccccc2Br)c2ccccc2n1
26.2
12) CC(C)c1ccc(COc2nc(C(Cl)(Cl)Cl)nc3ccccc23)cc1
33.3
13) COc1cc(C=O)cc([N+](=O)[O-])c1Oc1nc(C(Cl)(Cl)Cl)nc2ccccc12
57
